- system.tested: DENV4 FL NS5 (Dengue virus type 4, UniProt P09866)
- Construct: 100 nM DENV FL NS5 protein was added; made in house
- Sequence (P09866 2488-3387): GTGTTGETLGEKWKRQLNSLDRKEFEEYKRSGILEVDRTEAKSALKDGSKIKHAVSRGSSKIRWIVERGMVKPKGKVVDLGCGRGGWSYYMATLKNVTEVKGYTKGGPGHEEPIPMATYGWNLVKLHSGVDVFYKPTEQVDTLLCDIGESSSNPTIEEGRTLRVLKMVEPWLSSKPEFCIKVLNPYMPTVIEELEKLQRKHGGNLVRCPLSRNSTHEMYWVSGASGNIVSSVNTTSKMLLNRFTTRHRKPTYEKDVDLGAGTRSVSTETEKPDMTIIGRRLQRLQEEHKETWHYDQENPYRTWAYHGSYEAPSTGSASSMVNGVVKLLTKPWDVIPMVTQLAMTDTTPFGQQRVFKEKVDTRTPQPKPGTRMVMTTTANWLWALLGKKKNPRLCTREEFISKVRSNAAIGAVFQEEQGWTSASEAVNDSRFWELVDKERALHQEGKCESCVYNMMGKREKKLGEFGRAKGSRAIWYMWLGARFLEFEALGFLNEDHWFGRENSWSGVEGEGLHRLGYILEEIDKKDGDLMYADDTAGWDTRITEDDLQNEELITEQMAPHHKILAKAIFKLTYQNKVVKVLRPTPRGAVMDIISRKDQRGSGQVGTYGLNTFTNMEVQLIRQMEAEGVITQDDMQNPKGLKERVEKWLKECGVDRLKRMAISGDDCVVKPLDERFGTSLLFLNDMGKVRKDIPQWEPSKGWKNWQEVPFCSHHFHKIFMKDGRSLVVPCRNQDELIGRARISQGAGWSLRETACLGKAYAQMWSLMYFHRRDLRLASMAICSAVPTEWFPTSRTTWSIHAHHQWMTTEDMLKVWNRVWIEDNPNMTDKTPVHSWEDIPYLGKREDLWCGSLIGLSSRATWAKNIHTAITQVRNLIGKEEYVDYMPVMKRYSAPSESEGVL
- test.protocol: biochemical
- test.parameters: Enzyme + compound 20 min, then ssRNA and nucleotides, 2 hr; averaged from ≥3 experiments; read-out: DENV FL NS5 de novo initiation FAPA, IC50, DENV4
pIC50: −log10 of the molar value.
Reported pIC50 values for a set of molecules

molecule	pIC50
Nc1nc2c(ncn2[C@@H]2O[C@H](COP(=O)(O)OP(=O)(O)OP(=O)(O)O)C[C@H]2O)c(=O)[nH]1 [3'dGTP, reference compound]	6.10
COc1cccc(S(=O)(=O)NC(=O)c2cc(-c3ccc(C#CCO)s3)c(OC)cc2C)c1 [Compound 26i]	6.96
COc1ccc(CC(=O)O)cc1-c1ccc(Cl)s1	4.51

* * *

- System: HuH-7
- test.protocol: in vitro
- Format: cell-based
- test.parameters: HuH-7 (DENV2 replicon cells); 48 hr; ATP levels
metric.name: CC50

compound	system.tested	obs.value
COc1cccc(S(=O)(=O)NC(=O)c2cc(-c3ccc(C#CCO)s3)c(OC)cc2OC)c1 [Compound 27]	HuH-7	> 50 µM

* * *

- test.protocol: in vitro
- Assay type: cell-based
- test.parameters: human; 4–5 days
Reported CC50 values for a set of molecules

smi	CC50
COc1cc(OC)c(-c2ccc(C#CCO)s2)cc1C(=O)NS(=O)(=O)c1cccc2cccnc12	> 50 µM
COc1cccc(S(=O)(=O)NC(=O)c2cc(-c3ccc(C#CCO)s3)c(OC)cc2OC)c1	> 50 µM

* * *

- Test system: DENV2-NGC Ren-LUC Replicon in BHK21
- test.protocol: Stable BHK21 DENV2-NGC renilla luciferase replicon assay
- Assay type: cell-based
- test.parameters: Dengue virus, DENV2, BHK-21; 48 hr

compound	EC50
COc1cccc(S(=O)(=O)NC(=O)c2cc(-c3ccc(C#CCO)s3)c(OC)cc2OC)c1 [Compound 27]	3 µM
COc1cc(OC)c(-c2ccc(C#CCO)s2)cc1C(=O)NS(=O)(=O)c1cccc2cccnc12 [Compound 29]	4.6 µM

* * *

Reported pIC50 values for a set of compounds
- system.tested: DENV2 FL NS5 (Dengue virus type 2, UniProt P14340)
pIC50: −log10 of the molar value.

compound	system.tested	pIC50
COc1ccc(CC(=O)O)cc1-c1ccccc1	DENV2 FL NS5 (Dengue virus type 2, UniProt P14340)	3.11
O=C(O)Cc1cc(CC(=O)O)cc(-c2ccc(Cl)s2)c1	DENV2 FL NS5 (Dengue virus type 2, UniProt P14340)	4.40
COc1ccc(CC(=O)O)cc1-c1ccc(Cl)s1	DENV2 FL NS5 (Dengue virus type 2, UniProt P14340)	4.43
COc1cc(C)c(C(=O)NS(=O)(=O)c2ccccc2)cc1-c1ccc(C#CCO)s1	DENV2 FL NS5 (Dengue virus type 2, UniProt P14340)	6.97
COc1cc(OC)c(-c2ccc(C#CCO)s2)cc1C(=O)NS(=O)(=O)c1ccccc1	DENV2 FL NS5 (Dengue virus type 2, UniProt P14340)	6.84
O=C(O)Cc1cc(CC(=O)O)cc(-c2ccc(C#CCO)s2)c1	DENV2 FL NS5 (Dengue virus type 2, UniProt P14340)	5.66
Nc1nc2c(ncn2[C@@H]2O[C@H](COP(=O)(O)OP(=O)(O)OP(=O)(O)O)C[C@H]2O)c(=O)[nH]1 [3'dGTP, reference compound]	DENV2 FL NS5 (Dengue virus type 2, UniProt P14340)	6.21
COc1cccc(S(=O)(=O)NC(=O)c2cc(-c3ccc(C#CCO)s3)c(OC)cc2C)c1 [Compound 26i]	DENV2 FL NS5 (Dengue virus type 2, UniProt P14340)	7.07

* * *

- system.tested: DENV3 FL NS5 (Dengue virus type 3)
- Construct: 100 nM DENV FL NS5 protein was added; made in house
- test.protocol: DENV3 FL NS5 de novo initiation FAPA assay
- Type: biochemical
- test.parameters: one experiment; read-out: DENV FL NS5 de novo initiation FAPA, IC50, DENV3
pIC50: −log10 of the molar value.

compound	system.tested	pIC50
COc1cc(OC)c(-c2ccc(C#CCO)s2)cc1C(=O)NS(=O)(=O)c1cccc2cccnc12 [Compound 29]	DENV3 FL NS5 (Dengue virus type 3)	7.80
O=C(O)Cc1cc(CC(=O)O)cc(-c2ccc(C#CCO)s2)c1 [Compound 15]	DENV3 FL NS5 (Dengue virus type 3)	6.34
COc1ccc(CC(=O)O)cc1-c1ccc(Cl)s1 [Compound 3i]	DENV3 FL NS5 (Dengue virus type 3)	4.18
Nc1nc2c(ncn2[C@@H]2O[C@H](COP(=O)(O)OP(=O)(O)OP(=O)(O)O)C[C@H]2O)c(=O)[nH]1 [3'dGTP, reference compound]	DENV3 FL NS5 (Dengue virus type 3)	6.57

Origin of the recorded values: paper PMC4976923
